# target.or.system: dopamine transporter (Homo sapiens)
# Construct: expressed in transfected cells; host or cells: HEK-293
# Sequence (Q01959 whole entry): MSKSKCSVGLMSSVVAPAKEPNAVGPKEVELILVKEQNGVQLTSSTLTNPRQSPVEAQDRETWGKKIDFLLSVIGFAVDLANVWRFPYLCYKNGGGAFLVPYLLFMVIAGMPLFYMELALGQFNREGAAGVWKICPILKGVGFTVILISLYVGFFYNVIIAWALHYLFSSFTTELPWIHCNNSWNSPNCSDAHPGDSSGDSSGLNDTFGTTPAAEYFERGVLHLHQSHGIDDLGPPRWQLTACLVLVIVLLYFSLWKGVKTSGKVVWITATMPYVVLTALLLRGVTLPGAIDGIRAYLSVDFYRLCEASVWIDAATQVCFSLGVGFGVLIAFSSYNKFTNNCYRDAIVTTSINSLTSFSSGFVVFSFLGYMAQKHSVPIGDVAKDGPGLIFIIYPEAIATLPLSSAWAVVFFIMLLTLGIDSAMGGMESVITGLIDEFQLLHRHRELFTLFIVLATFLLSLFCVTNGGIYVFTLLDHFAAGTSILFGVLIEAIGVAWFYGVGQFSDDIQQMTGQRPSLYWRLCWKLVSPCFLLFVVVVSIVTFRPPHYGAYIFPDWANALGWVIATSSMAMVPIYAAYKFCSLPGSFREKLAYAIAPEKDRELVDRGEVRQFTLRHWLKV
# experiment.description: Dopamine reuptake inhibition in transporter-transfected HEK-293 cells ([3H]-DA)
# Format: cell-based
# experimental.context: compound 1 μM; 20-30 nM [3H]-DA; relative to control without compound (100%), lower = more inhibition
Returns the class for an entry based on its Triple reuptake inhibition (Ratio %) DAT. Class ranges: bin 0 = under 60%, bin 1 = from 60% up to 70%, bin 2 = 70% and over

Lab note: sort Cc1c(C(=O)NCCN2CCC(Cc3ccccc3)CC2)[nH]c2ccccc12 [Example 20] into the matching Triple reuptake inhibition (Ratio %) DAT band. bin 0

Please classify: CC(C)(CN1CCC(Cc2ccccc2)CC1)NC(=O)c1cc2ccccc2[nH]1 [Example 34] bin 0

Looking at O=C(NCCN1CCN(Cc2ccc(Cl)c(Cl)c2)CC1)c1cc2ccccc2[nH]1 [Example 22] , which class would you pick? bin 1

Class label required: COc1cc2cc(C(=O)NCCN3CCC(Cc4ccccc4)CC3)[nH]c2cc1OC [Example 35] bin 0

Each compound maps to one class by Triple reuptake inhibition (Ratio %) DAT. Which class for O=C(NCCN1CCC(Cc2ccccc2)CC1)c1c[nH]c2ccccc12 [Example 73] ? bin 0

Form field 'band' for O=C(NCCN1CCN(CC2CCOCC2)CC1)c1cc2ccccc2[nH]1 [Example 29] bin 2

Band for the recorded Triple reuptake inhibition (Ratio %) DAT of CCCCOc1ccc2[nH]c(C(=O)NCCN3CCC(Cc4ccccc4)CC3)cc2c1 [Example 67] ? bin 0

Quick check: band for O=C(NCCNC(=O)c1cc2ccccc2[nH]1)c1ccc2ccccc2c1 [Example 45] bin 2

Given O=C(NCCN1CCC(Cc2ccccc2)CC1)[C@H]1Cc2ccccc2N1 [Example 58] , name the class its Triple reuptake inhibition (Ratio %) DAT places it in. bin 1

Which class is correct for the following compound? O=C(NCCN1CCC(C(O)c2ccccc2)CC1)c1cc2ccccc2[nH]1 (stereo not shown) [Example 36] bin 2

Band of O=C(NCC(=O)N1CCC(Cc2ccccc2)CC1)c1cc2ccccc2[nH]1 [Example 50] ? bin 2

====

# target.or.system: dopamine transporter (Homo sapiens)
# Construct: expressed in transfected cells; host or cells: HEK-293
# experiment.description: Dopamine reuptake inhibition in transporter-transfected HEK-293 cells ([3H]-DA)
# Format: cell-based
# experimental.context: compound 1 μM; 20-30 nM [3H]-DA; relative to control without compound (100%), lower = more inhibition
metric.name: Triple reuptake inhibition (Ratio %) DAT
Supply the numeric figure in %, leaving out any unit text.

API: value(readout=Triple reuptake inhibition (Ratio %) DAT, system=dopamine transporter (Homo sapiens)) for record `O=C(NCCNCc1ccc2ccccc2c1)c1cc2ccccc2[nH]1` 79.32

# returns recorded Triple reuptake inhibition (Ratio %) DAT (system: dopamine transporter (Homo sapiens)) for `O=C(N[C@@H]1CC[C@@H](c2ccc(Cl)c(Cl)c2)c2ccccc21)c1cc2ccccc2[nH]1` 79.43

Lookup: Triple reuptake inhibition (Ratio %) DAT / dopamine transporter (Homo sapiens) / `COc1ccc2[nH]c(C(=O)NCCN3CCC(Cc4ccccc4)CC3)cc2c1` 25.55

Record `O=C(CCN1CCC(Cc2ccccc2)CC1)Nc1cc2ccccc2[nH]1` : what is its Triple reuptake inhibition (Ratio %) DAT with dopamine transporter (Homo sapiens)? 36.87

Please provide the recorded Triple reuptake inhibition (Ratio %) DAT for `O=C(NCCN1CCC(Cc2ccc(F)c(F)c2)CC1)c1ccc2cc(Br)ccc2c1` , tested on dopamine transporter (Homo sapiens). 57.66

Lab note: need Triple reuptake inhibition (Ratio %) DAT with dopamine transporter (Homo sapiens) for entry O=C(NCCN1CCC(Cc2ccccc2)CC1)C1Cc2ccccc2N1 (stereo not drawn) , please look it up. 60.52

====

# target.or.system: norepinephrine transporter (Homo sapiens, UniProt P23975)
# Construct: expressed in transfected cells; host or cells: HEK-293
# Sequence (P23975 whole entry, species assumed): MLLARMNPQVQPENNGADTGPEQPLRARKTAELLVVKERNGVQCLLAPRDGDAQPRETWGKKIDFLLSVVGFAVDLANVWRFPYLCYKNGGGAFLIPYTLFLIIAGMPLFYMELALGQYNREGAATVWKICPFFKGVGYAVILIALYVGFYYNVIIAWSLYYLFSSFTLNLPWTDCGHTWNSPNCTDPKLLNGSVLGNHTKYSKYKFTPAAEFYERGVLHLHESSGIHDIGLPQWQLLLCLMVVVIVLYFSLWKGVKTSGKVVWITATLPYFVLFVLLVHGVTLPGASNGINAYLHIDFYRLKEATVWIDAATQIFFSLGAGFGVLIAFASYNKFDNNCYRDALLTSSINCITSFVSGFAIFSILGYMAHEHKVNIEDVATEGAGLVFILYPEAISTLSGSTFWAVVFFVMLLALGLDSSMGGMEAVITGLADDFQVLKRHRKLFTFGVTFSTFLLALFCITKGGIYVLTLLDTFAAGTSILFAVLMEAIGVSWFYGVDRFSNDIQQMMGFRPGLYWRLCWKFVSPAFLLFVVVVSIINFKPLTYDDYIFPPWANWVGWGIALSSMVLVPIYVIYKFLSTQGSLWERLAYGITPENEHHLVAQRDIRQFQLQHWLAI
# experiment.description: Norepinephrine reuptake inhibition in transporter-transfected HEK-293 cells ([3H]-NE)
# Assay type: cell-based
# experimental.context: compound 1 μM; [3H]-NE; relative to control without compound (100%), lower = more inhibition
# Experimental: To evaluate the reuptake inhibitory effect on dopamine, the dopamine transporter cDNA was transfected using the HEK-293 cell line, and then sub-seeded in a 24 well plate the next day. […] After dissolving the resultant in 1% SDS (0.5 ml), the degree of binding of radioisotope-labeled dopamine to the transporter was measured. […]
For each entry below, report its Triple reuptake inhibition (Ratio %) NET value.
Hey, just the number and the unit after it is fine.

Using the record for `O=C(NCCN1CCC(c2ccc(Cl)c(Cl)c2)CC1)c1cc2ccccc2[nH]1` , report its Triple reuptake inhibition (Ratio %) NET. 88.77%

I would be grateful if you could share the reported Triple reuptake inhibition (Ratio %) NET for `O=C(NCCN1CCN(Cc2ccc(F)c(F)c2)CC1)c1ccc2cc(Br)ccc2c1` . 60.83%

I'd like to know its Triple reuptake inhibition (Ratio %) NET. The compound in question is `O=C(NCCN1CCC(Cc2ccccc2)CC1)c1nc2ccccc2[nH]1` 73.75%

Fill in: Triple reuptake inhibition (Ratio %) NET of `O=C(NCCNC(=O)c1cc2ccccc2[nH]1)c1ccc2ccccc2c1` is ___ 102.98%

# lookup: Triple reuptake inhibition (Ratio %) NET of O=C(NC1CCC(Cc2ccccc2)CC1)c1cc2ccccc2[nH]1 (stereo not drawn) 85.48%

Look up Triple reuptake inhibition (Ratio %) NET for this compound: `O=C(N[C@@H]1CC[C@@H](c2ccc(Cl)c(Cl)c2)c2ccccc21)c1cc2ccccc2[nH]1` 144.33%

Look up Triple reuptake inhibition (Ratio %) NET: `O=C(NCCN1CCN(c2cccc(Cl)c2Cl)CC1)c1cc2ccccc2[nH]1` 99.59%

Value lookup for Triple reuptake inhibition (Ratio %) NET; key = `N#Cc1ccc2[nH]c(C(=O)NCCN3CCC(Cc4ccccc4)CC3)cc2c1` 31.85%

Consider the compound `NC(=O)c1ccc2[nH]c(C(=O)NCCN3CCC(Cc4ccccc4)CC3)cc2c1` and give its measured Triple reuptake inhibition (Ratio %) NET. 37.73%

Which Triple reuptake inhibition (Ratio %) NET value belongs to `CC1(C(=O)NCCN2CCC(Cc3ccccc3)CC2)CC1` ? 116.85%

Could you tell me which Triple reuptake inhibition (Ratio %) NET is on file for `O=C(NC1(CN2CCC(Cc3ccccc3)CC2)CC1)c1cc2ccccc2[nH]1` ? 69.01%

Triple reuptake inhibition (Ratio %) NET for `O=C(NCCN1CCC(Cc2ccccc2)CC1)c1ccc(Cl)c(Cl)c1` ? 67.88%

Give the measured Triple reuptake inhibition (Ratio %) NET of `O=C(NCCN1CCC(Cc2ccccc2)CC1)c1cc2cc(O)ccc2[nH]1` . 21.59%

Look up Triple reuptake inhibition (Ratio %) NET for this compound: `O=C(NCCNCc1ccc2ccccc2c1)c1cc2ccccc2[nH]1` 92.95%

If you can, please state the reported Triple reuptake inhibition (Ratio %) NET value of `O=C(CCN1CCC(Cc2ccccc2)CC1)Nc1cc2ccccc2[nH]1` . 32.60%

# input compound: `O=C(NCCN1CCC(Cc2ccccc2)CC1)c1nc2cc(O)ccc2[nH]1` ; wanted: its Triple reuptake inhibition (Ratio %) NET 57.21%

Any idea what its Triple reuptake inhibition (Ratio %) NET is? The compound is O=C(NCCN1CCCC(Cc2ccccc2)C1)c1cc2ccccc2[nH]1 (stereo not drawn) 70.02%

Given the entry `O=C(NCCn1ccc(-c2ccc(F)cn2)n1)c1cc2ccccc2[nH]1` , report its measured Triple reuptake inhibition (Ratio %) NET. 82.74%

Need Triple reuptake inhibition (Ratio %) NET of `O=C(NCCN1CCN(c2ccc(Cl)c(Cl)c2)CC1)c1ccc(Cl)c(Cl)c1` , thanks. 105.49%

Request the reported Triple reuptake inhibition (Ratio %) NET associated with `O=C(NCCN1CCC(Cc2ccc(Cl)c(Cl)c2)CC1)c1ccc2cc(Br)ccc2c1` 98.42%

Look up Triple reuptake inhibition (Ratio %) NET for this compound: O=C(NCCN1CCC(Cc2ccccc2)CC1)C1Cc2ccccc2N1 (stereo not drawn) 124.77%

Dear colleague, I am looking for the recorded Triple reuptake inhibition (Ratio %) NET of the following compound: `O=C(NCCN1CCN(c2cccc(Cl)c2Cl)CC1)c1ccc2cc(Br)ccc2c1` 121.24%

Data request, read-out Triple reuptake inhibition (Ratio %) NET, for `O=C(NCCN1CCC(Cc2ccc(F)c(F)c2)CC1)c1ccc2cc(Br)ccc2c1` 34.16%

May I ask what Triple reuptake inhibition (Ratio %) NET has been recorded for `O=C(NCCN1CCN(Cc2ccccc2)CC1)c1ccc2cc(Br)ccc2c1` ? 94.24%

====

# target.or.system: serotonin transporter (Homo sapiens, UniProt P31645)
# Construct: expressed in transfected cells; host or cells: HEK-293
# Sequence (P31645 whole entry): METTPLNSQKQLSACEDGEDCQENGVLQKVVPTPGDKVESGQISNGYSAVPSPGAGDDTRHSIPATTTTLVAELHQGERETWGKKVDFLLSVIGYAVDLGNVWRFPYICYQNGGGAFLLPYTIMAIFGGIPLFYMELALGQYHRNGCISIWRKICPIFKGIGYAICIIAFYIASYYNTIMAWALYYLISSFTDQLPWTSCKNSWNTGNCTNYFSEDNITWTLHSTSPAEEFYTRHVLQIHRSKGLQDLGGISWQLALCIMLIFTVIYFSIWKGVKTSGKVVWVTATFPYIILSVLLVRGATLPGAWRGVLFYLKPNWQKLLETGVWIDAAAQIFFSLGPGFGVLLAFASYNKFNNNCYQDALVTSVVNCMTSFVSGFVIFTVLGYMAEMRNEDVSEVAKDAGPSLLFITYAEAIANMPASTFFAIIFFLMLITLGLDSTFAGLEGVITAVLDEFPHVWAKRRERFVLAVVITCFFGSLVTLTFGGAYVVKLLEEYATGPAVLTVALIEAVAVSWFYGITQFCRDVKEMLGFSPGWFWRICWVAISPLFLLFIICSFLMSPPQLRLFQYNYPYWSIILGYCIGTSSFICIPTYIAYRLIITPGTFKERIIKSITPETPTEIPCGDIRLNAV
# experiment.description: Serotonin reuptake inhibition in transporter-transfected HEK-293 cells ([3H]-5-HT)
# Assay type: cell-based
# experimental.context: compound 1 μM; [3H]-5-HT; relative to control without compound (100%), lower = more inhibition
metric.name: Triple reuptake inhibition (Ratio %) SERT
Field format: number, assumed %, no unit text.

Entry `O=C(N[C@@H]1CC[C@@H](c2ccc(Cl)c(Cl)c2)c2ccccc21)c1cc2ccccc2[nH]1` has what Triple reuptake inhibition (Ratio %) SERT? 94.51

Query (compound): `COc1ccc2[nH]c(C(=O)NCCN3CCC(Cc4ccccc4)CC3)cc2c1` ; field requested: Triple reuptake inhibition (Ratio %) SERT 48.73

Using the record for `O=C(NCCN1CCC(Cc2ccccc2)CC1)c1nc2ccccc2[nH]1` , report its Triple reuptake inhibition (Ratio %) SERT. 62.21

May I ask what Triple reuptake inhibition (Ratio %) SERT has been recorded for `O=C(NCCN1CCN(Cc2ccc(Cl)c(Cl)c2)CC1)c1cc2ccccc2[nH]1` ? 52.47

Tell me the measured Triple reuptake inhibition (Ratio %) SERT of `O=C(NCCNCc1ccc2ccccc2c1)c1cc2ccccc2[nH]1` , please. 84.69

Triple reuptake inhibition (Ratio %) SERT for O=C(NCCN1CCC(Cc2ccccc2)CC1)C1Cc2ccccc2N1 (stereo not shown) ? 77.95

What measured Triple reuptake inhibition (Ratio %) SERT goes with `COc1ccc2[nH]c(C(=O)NCCN3CCC(Cc4ccccc4)CC3)nc2c1` ? 45.80

The measurements presented in this section are drawn from patent US20240018119A1.
